- assay.summary: qHTS assay for small molecule activators of the heat shock response signaling pathway - cell viability counter screen (AID 743209); also: nearly all actives have a fitted effect of over 50% in size
- condition.details: HSE-bla HeLa viability, CellTiter-Glo luminescence, 5 h; series mostly up to 62.6 µM
Inconclusive results are not listed. Calls of active or inactive are those of the source. Calls follow the shape of the dose curve; as a rule, active = well fitted cell-killing curve with a large enough effect in the repeat runs; inconclusive = weak or mixed curves, or effect the other way; inactive = no such curve, though single readings can be large or run the other way.
Answer with one of the outcomes given here: active, inactive

Fill in: this test's call for `CCCOC(=O)c1ccc(C(=O)OCCC)nc1` is ___
inactive

Fill in: this test's call for `Nc1ccc(C(=O)OCCCOC(=O)c2ccc(N)cc2)cc1` is ___
inactive

Fill in: this test's call for CO/N=C1\CN(c2nc3c(cc2F)c(=O)c(C(=O)O)cn3C2CC2)CC1CN (centres undefined) is ___
inactive

Fill in: this test's call for `CCCCCCOC(=O)C(C)C` is ___
inactive

Fill in: this test's call for `CCCc1c(OCCCOc2ccc(OCC(=O)O)cc2)ccc(C(C)=O)c1O` is ___
inactive

Fill in: this test's call for `CCOC(=O)c1ccccc1C` is ___
inactive

Fill in: this test's call for `Fc1c(F)c(F)c(Br)c(F)c1F` is ___
inactive

Fill in: this test's call for `CCc1nn(CCCN2CCN(c3cccc(Cl)c3)CC2)c(=O)n1CCOc1ccccc1` is ___
inactive

Fill in: this test's call for CC(C)OCC1CO1 (centres undefined) is ___
inactive

Fill in: this test's call for `Nc1ccc(S(=O)(=O)O)c(N)c1` is ___
inactive

Fill in: this test's call for `CCC(C)=O` is ___
inactive

Fill in: this test's call for `O=C(N/N=C/c1ccc([N+](=O)[O-])o1)c1ccc(O)cc1` is ___
inactive

Fill in: this test's call for `Cc1ccnc2ccccc12` is ___
inactive

Fill in: this test's call for `O=C(NCCCN1CCOCC1)c1ccc(Cl)cc1` is ___
inactive

Fill in: this test's call for `CCN(Cc1cccc(S(=O)(=O)O)c1)c1ccc(C(=C2C=CC(=[N+](CC)Cc3cccc(S(=O)(=O)[O-])c3)C=C2)c2ccccc2)cc1` is ___
inactive

Fill in: this test's call for `Oc1cc(O)c(Cl)cc1Cl` is ___
inactive

Fill in: this test's call for `CC1=C(C=O)C(C)(C)CCC1` is ___
inactive

Fill in: this test's call for OCC1CC=CCC1 (centres undefined) is ___
inactive

Fill in: this test's call for `O=C(O)c1cccc(O)c1` is ___
inactive

Fill in: this test's call for `O=C(CCCCCCCCC#CI)Oc1ccccc1` is ___
inactive

Fill in: this test's call for CC1C2CC(CC2C2CCCC(O)C2)C1(C)C (centres undefined) is ___
active

Fill in: this test's call for N#C/C(=C1\SCC(c2ccccc2Cl)S1)n1ccnc1 (centres undefined) is ___
inactive

Fill in: this test's call for CC(C)(C)C(=O)C(Oc1ccc(Cl)cc1)n1ccnc1 (centres undefined) is ___
inactive

Fill in: this test's call for `CC(C)CCCCCCOC(=O)CCCCC(=O)OCCCCCCC(C)C` is ___
inactive

Fill in: this test's call for `Cc1ccc(S(=O)(=O)NC2CCCCC2)cc1` is ___
inactive

Fill in: this test's call for `COc1ccc(CCC(=O)c2c(O)cc(O[C@@H]3O[C@H](CO)[C@@H](O)[C@H](O)[C@H]3O[C@@H]3O[C@@H](C)[C@H](O)[C@@H](O)[C@H]3O)cc2O)cc1O` is ___
inactive

Fill in: this test's call for CCCCC(CC)CNCC(CC)CCCC (centres undefined) is ___
inactive

Fill in: this test's call for Cc1ccccc1N1C(=O)c2cc(S(N)(=O)=O)c(Cl)cc2NC1C (centres undefined) is ___
inactive

Fill in: this test's call for `O=C(O)c1cccnc1C(=O)O` is ___
inactive

Fill in: this test's call for `CCOC(=O)N1CCC(n2c(=O)[nH]c3cc(Cl)ccc32)CC1` is ___
inactive

Fill in: this test's call for `CCNC(=O)N1CCN(CCCC(c2ccc(F)cc2)c2ccc(F)cc2)CC1` is ___
inactive

Fill in: this test's call for `N#C/C(=C1/SC[C@@H](c2ccc(Cl)cc2Cl)S1)n1ccnc1` is ___
inactive

Fill in: this test's call for `CCN(CC)CCNC(=O)c1ccc(NC(C)=O)cc1` is ___
inactive

Fill in: this test's call for `Oc1ccc(Nc2ccccc2)cc1` is ___
inactive
